Collected Solubility in water values appear next to each entry.
- experiment: Comparative test of solubility in water of different forms of rifaximin (spectrophotometric, absorbance at 450.50 nm)
- Type: physicochemical
- experimental-setup: time 30 min; suspension in deionized water, constant stirring, 25° C.
Express the result in g/L but write the number alone.

See these solved cases before continuing.
* CO[C@H]1/C=C/O[C@@]2(C)Oc3c(C)c(O)c4c(O)c(c5c(nc6cc(C)ccn65)c4c3C2=O)NC(=O)/C(C)=C\C=C\[C@H](C)[C@H](O)[C@@H](C)[C@@H](O)[C@@H](C)[C@H](OC(C)=O)[C@@H]1C [example 1, rifaximin] | 0.025
* CO[C@H]1/C=C/O[C@@]2(C)Oc3c(C)c(O)c4c(O)c(c5c(nc6cc(C)ccn65)c4c3C2=O)NC(=O)/C(C)=C\C=C\[C@H](C)[C@H](O)[C@@H](C)[C@@H](O)[C@@H](C)[C@H](OC(C)=O)[C@@H]1C [form γ, rifaximin] | 0.023

Okay, now this compound:
GET /value?item= CO[C@H]1/C=C/O[C@@]2(C)Oc3c(C)c(O)c4c(O)c(c5c(nc6cc(C)ccn65)c4c3C2=O)NC(=O)/C(C)=C\C=C\[C@H](C)[C@H](O)[C@@H](C)[C@@H](O)[C@@H](C)[C@H](OC(C)=O)[C@@H]1C [example 13, rifaximin] &field=Solubility in water returns 0.072

* * *

- experiment: Comparative test of solubility in water of different forms of rifaximin (spectrophotometric, absorbance at 450.50 nm)
- Type: physicochemical
- experimental-setup: time 5 min; suspension in deionized water, constant stirring, 25° C.
measured-parameter: Solubility in water (µg/mL)
Express the result in µg/mL but write the number alone.

See these solved cases before continuing.
* CO[C@H]1/C=C/O[C@@]2(C)Oc3c(C)c(O)c4c(O)c(c5c(nc6cc(C)ccn65)c4c3C2=O)NC(=O)/C(C)=C\C=C\[C@H](C)[C@H](O)[C@@H](C)[C@@H](O)[C@@H](C)[C@H](OC(C)=O)[C@@H]1C [example 13, rifaximin] | 31
* CO[C@H]1/C=C/O[C@@]2(C)Oc3c(C)c(O)c4c(O)c(c5c(nc6cc(C)ccn65)c4c3C2=O)NC(=O)/C(C)=C\C=C\[C@H](C)[C@H](O)[C@@H](C)[C@@H](O)[C@@H](C)[C@H](OC(C)=O)[C@@H]1C [example 1, rifaximin] | 6.9
* CO[C@H]1/C=C/O[C@@]2(C)Oc3c(C)c(O)c4c(O)c(c5c(nc6cc(C)ccn65)c4c3C2=O)NC(=O)/C(C)=C\C=C\[C@H](C)[C@H](O)[C@@H](C)[C@@H](O)[C@@H](C)[C@H](OC(C)=O)[C@@H]1C [form γ, rifaximin] | 8.2
* CO[C@H]1/C=C/O[C@@]2(C)Oc3c(C)c(O)c4c(O)c(c5c(nc6cc(C)ccn65)c4c3C2=O)NC(=O)/C(C)=C\C=C\[C@H](C)[C@H](O)[C@@H](C)[C@@H](O)[C@@H](C)[C@H](OC(C)=O)[C@@H]1C [example 8, rifaximin] | 29

Okay, now this compound:
GET /value?item= CO[C@H]1/C=C/O[C@@]2(C)Oc3c(C)c(O)c4c(O)c(c5c(nc6cc(C)ccn65)c4c3C2=O)NC(=O)/C(C)=C\C=C\[C@H](C)[C@H](O)[C@@H](C)[C@@H](O)[C@@H](C)[C@H](OC(C)=O)[C@@H]1C [example 5, rifaximin] &field=Solubility in water returns 7.1
